- MEASUREMENT_TARGET: Phospholipase D1 (Homo sapiens)
- TEST_PROTOCOL: PLD1 inhibitors in cells, Calu-1 cells, single concentration (AID 602144);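 further: tested at 200 nM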
- SETUP_CONDITIONS: cellular PLD1 activity, stronger effect = lower value
Kindly supply the reported remaining activity values for the records listed here.
Number only, in %; omit the unit.

Incoming: Look up remaining activity for this compound: Cc1ccc(C(=O)N[C@@H](C)CN2CCC(n3c(=O)[nH]c4cc(Br)ccc43)CC2)cc1
Outgoing: 13

Incoming: Look up remaining activity for this compound: O=C(NCCN1CCN(c2ccncc2)CC1)c1c2ccccc2cc2ccccc12
Outgoing: 183

Incoming: Look up remaining activity for this compound: O=C(NCCN1CC=C(n2c(=O)[nH]c3ccccc32)CC1)C1CC1c1ccccc1 (centres undefined)
Outgoing: 0

Incoming: Look up remaining activity for this compound: CC1(C)[C@@H]2CC[C@@]1(CS(=O)(=O)NCCN1CCC(n3c(=O)[nH]c4ccccc43)CC1)C(=O)C2
Outgoing: 103

Incoming: Look up remaining activity for this compound: Cc1cccc(C(=O)NCCN2CCC(n3c(=O)[nH]c4ccccc43)CC2)n1
Outgoing: 26.7

Incoming: Look up remaining activity for this compound: Cn1c(C2CCN(CC3(N)CCCC3)CC2)nc2ccccc21 (tested in a mixture with another compound)
Outgoing: 95

Incoming: Look up remaining activity for this compound: O=C(NCCN1CCC(n2c(=O)[nH]c3ccccc32)CC1)Nc1cccc(C(F)(F)F)c1
Outgoing: 135

Incoming: Look up remaining activity for this compound: O=C(NCCN1CCC2(CC1)CCN(c1ccccc1)C2=O)c1cnc2ccccc2c1
Outgoing: 109

Incoming: Look up remaining activity for this compound: C[C@@H](CN1CCC(n2c(=O)[nH]c3ccccc32)CC1)NC(=O)CSc1ccccc1
Outgoing: 48.1

Incoming: Look up remaining activity for this compound: O=C(NCCN1CCC(n2c(=O)[nH]c3ccccc32)CC1)C(c1ccccc1)(c1ccccc1)c1ccccc1
Outgoing: 99

Incoming: Look up remaining activity for this compound: O=C(NCCN1CCC2(CC1)CCN(c1ccccc1)C2=O)c1ccc2ccccc2c1
Outgoing: 113

Incoming: Look up remaining activity for this compound: Cc1ccc(C(=O)NCCN2CCC(n3c(=O)[nH]c4cc(Br)ccc43)CC2)cc1
Outgoing: 3.74

Incoming: Look up remaining activity for this compound: COc1ccc2c(c1)c(CC(=O)NCCN1CCC(n3c(=O)[nH]c4ccccc43)CC1)c(C)n2C(=O)c1ccc(Cl)cc1
Outgoing: 98.1

Incoming: Look up remaining activity for this compound: O=c1[nH]c2ccccc2n1C1CCN(CCNC(=S)Nc2cccc3ccccc23)CC1
Outgoing: 152

Incoming: Look up remaining activity for this compound: O=C(NCCN1CCC(n2nnc3ccccc32)CC1)c1cnc2ccccc2c1
Outgoing: 79.2

Incoming: Look up remaining activity for this compound: C[C@@H](CN1CCC(n2c(=O)[nH]c3cc(I)ccc32)CC1)NC(=O)c1ccc(Cl)cc1
Outgoing: 15.5

Incoming: Look up remaining activity for this compound: CS(=O)(=O)N1CC2(CCN(CCNC(=O)c3ccc4ccccc4c3)CC2)c2ccccc21
Outgoing: 136

Incoming: Look up remaining activity for this compound: O=C(NCCN1CCC(n2c(=O)[nH]c3ccccc32)CC1)NC(c1ccccc1)c1ccccc1
Outgoing: 146

Incoming: Look up remaining activity for this compound: O=C(NCCN1CCN(c2ncccn2)CC1)c1ccc2ccccc2c1
Outgoing: 118
